Exercise: for every item that follows, state its recorded Stability of Plant-Derived Cannabinoid Compounds in Powder Concentrate.
# Experiment Notes: Stability of cannabinoid entourage and Vitamin E components of the powder concentrate by LCMSMS
# Type: physicochemical
# Measurement Setup: powder stored at 21-25° C.; 180 days
// return numeric value only (unit: mg/g powder, not printed)

Reported Stability of Plant-Derived Cannabinoid Compounds in Powder Concentrate, molecule C=C(C)[C@@H]1CCC(C)=C[C@H]1c1c(O)cc(CCCCC)cc1O [CBD, cannabidiol, reference compound] : ____
5.93

Reported Stability of Plant-Derived Cannabinoid Compounds in Powder Concentrate, molecule CCCCCc1cc(O)c(C/C=C(\C)CCC=C(C)C)c(O)c1 [CBG, cannabigerol] : ____
1.07

Reported Stability of Plant-Derived Cannabinoid Compounds in Powder Concentrate, molecule CCCCCc1cc(O)c2c(c1)OC1(C)CCC3C1C2C3(C)C (stereo not drawn) [CBL, cannabicyclol] : ____
0.049

###

Exercise: for every item that follows, state its recorded Stability of Plant-Derived Cannabinoid Compounds in Powder Concentrate.
# Experiment Notes: Stability of cannabinoid entourage and Vitamin E components of the powder concentrate by LCMSMS
# Assay type: physicochemical
# Measurement Setup: powder stored at 21-25° C.; 240 days
// return numeric value only (unit: mg/g powder, not printed)

Reported Stability of Plant-Derived Cannabinoid Compounds in Powder Concentrate, compound C=C(C)[C@@H]1CCC(C)=C[C@H]1c1c(O)cc(CCCCC)cc1O [CBD, cannabidiol, reference compound] : ____
5.98

Reported Stability of Plant-Derived Cannabinoid Compounds in Powder Concentrate, compound CCCc1cc(O)c2c(c1)OC(C)(C)[C@@H]1CCC(C)=C[C@@H]21 [THCV, delta-9-tetrahydrocannabivarin] : ____
0.700

Reported Stability of Plant-Derived Cannabinoid Compounds in Powder Concentrate, compound C=C(C)[C@@H]1CCC(C)=C[C@H]1c1c(O)cc(CCCCC)c(C(=O)O)c1O : ____
0.417

Reported Stability of Plant-Derived Cannabinoid Compounds in Powder Concentrate, compound CCCCCc1cc2c(c(O)c1C(=O)O)[C@@H]1C=C(C)CC[C@H]1C(C)(C)O2 [D9 THCA, delta-9-tetrahydrocannabinolic acid] : ____
0.148

Reported Stability of Plant-Derived Cannabinoid Compounds in Powder Concentrate, compound C=C(C)[C@@H]1CCC(C)=C[C@H]1c1c(O)cc(CCC)cc1O : ____
0.052

Reported Stability of Plant-Derived Cannabinoid Compounds in Powder Concentrate, compound CCCCCc1cc(O)c(C/C=C(\C)CCC=C(C)C)c(O)c1 : ____
1.12

Reported Stability of Plant-Derived Cannabinoid Compounds in Powder Concentrate, compound CCCCCc1cc(O)c2c(c1)OC(C)(C)c1ccc(C)cc1-2 : ____
0.467

###

# Experiment Notes: Stability of cannabinoid compounds and Vitamin E components in Beverage 1 (AB White) by LCMSMS
# Type: physicochemical
# Measurement Setup: AB White stored at 8° C.; 330 days
Readout Kind: Stability of Plant-Derived Cannabinoid Compounds in AB White, 8° C.
Your answer should be a number followed by the unit of measure.

Reported Stability of Plant-Derived Cannabinoid Compounds in AB White, 8° C., molecule C=C(C)[C@@H]1CCC(C)=C[C@H]1c1c(O)cc(CCC)cc1O [CBDV, cannabidivarin] : ____
0.146 µg/mL

Reported Stability of Plant-Derived Cannabinoid Compounds in AB White, 8° C., molecule CCCCCc1cc(O)c2c(c1)OC(C)(CCC=C(C)C)C=C2 (stereo not shown) [CBC, cannabichromene] : ____
0.316 µg/mL

Reported Stability of Plant-Derived Cannabinoid Compounds in AB White, 8° C., molecule C=C(C)[C@@H]1CCC(C)=C[C@H]1c1c(O)cc(CCCCC)cc1O [CBD, cannabidiol, reference compound] : ____
27.33 µg/mL

Reported Stability of Plant-Derived Cannabinoid Compounds in AB White, 8° C., molecule CCCCCc1cc(O)c(C/C=C(\C)CCC=C(C)C)c(O)c1 [CBG, cannabigerol] : ____
4.69 µg/mL

Reported Stability of Plant-Derived Cannabinoid Compounds in AB White, 8° C., molecule CCCc1cc(O)c2c(c1)OC(C)(C)[C@@H]1CCC(C)=C[C@@H]21 [THCV, delta-9-tetrahydrocannabivarin] : ____
3.52 µg/mL

Reported Stability of Plant-Derived Cannabinoid Compounds in AB White, 8° C., molecule CCCCCc1cc(O)c2c(c1)OC(C)(C)[C@@H]1CCC(C)=C[C@@H]21 [D9 THC, delta-9-tetrahydrocannabinol, reference compound] : ____
11.68 µg/mL

Reported Stability of Plant-Derived Cannabinoid Compounds in AB White, 8° C., molecule CCCCCc1cc2c(c(O)c1C(=O)O)[C@@H]1C=C(C)CC[C@H]1C(C)(C)O2 [D9 THCA, delta-9-tetrahydrocannabinolic acid] : ____
0.909 µg/mL

Reported Stability of Plant-Derived Cannabinoid Compounds in AB White, 8° C., molecule CCCCCc1cc(O)c2c(c1)OC1(C)CCC3C1C2C3(C)C (stereo not shown) [CBL, cannabicyclol] : ____
0.543 µg/mL

Reported Stability of Plant-Derived Cannabinoid Compounds in AB White, 8° C., molecule C=C(C)[C@@H]1CCC(C)=C[C@H]1c1c(O)cc(CCCCC)c(C(=O)O)c1O [CBDA, cannabidiolic acid] : ____
1.70 µg/mL

Reported Stability of Plant-Derived Cannabinoid Compounds in AB White, 8° C., molecule CCCCCc1cc(O)c2c(c1)OC(C)(C)c1ccc(C)cc1-2 [CBN, cannabinol] : ____
2.75 µg/mL
